The measurements presented in this section are drawn from the RNAGym collection of RNA variant scans (doi:10.7554/elife.80360).

B1: CPEB3 Ribozyme (parent)
chain: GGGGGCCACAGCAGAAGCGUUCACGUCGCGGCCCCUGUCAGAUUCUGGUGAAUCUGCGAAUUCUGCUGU

Variants of: B1
Experiment: self-cleavage, relative activity (ratio to wild type); higher = more cleavage; co-transcriptional
assay-readout: self-cleavage
Numbers only.

Below, each entry is followed by its recorded self-cleavage result.
Request: Given the entry A15C G56U , report its measured self-cleavage.
Response: 0.626

Request: Given the entry G47C C63U , report its measured self-cleavage.
Response: 1.01

Request: Given the entry A13G C63A , report its measured self-cleavage.
Response: 0.26

Value sought for every listed variant: self-cleavage.
1. G2C C39U
2. G37A C54U
3. U44C G48A
4. G58A U67A
5. G14C U36G
6. C18A U53C
7. G4U G17A

Response:
1: 0.0154; 2: 0.417; 3: 1.02; 4: 0.968; 5: 0.19; 6: 0.169; 7: 0.114
